tested on: NCI/ADR-RES ovarian; test: NCI-60 one-dose screen, 48 h (100 = growth as untreated, 0 = no growth, -100 = all killed); settings: 10 µM unless noted
The panel holds about 83,000 compounds, 20% with a hit somewhere; the sample as a whole holds those more often.
Property Name: growth (%)
Unit % implied. Number only.

CCOC(=O)CCN(CCC(=O)OCC)c1ccccc1 ... 105
O=S1(=O)NCCCN1CCNc1nccc(-c2c(-c3cccc(O)c3)nc3sccn23)n1 ... 116
ClC1=NC(Cl)C(Cl)=N/C1=N\c1ncn[nH]1 (stereo not given) ... 91.9
c1cc(C2CCCCC2)ccc1-c1cnc2nonc2n1 ... -3.11

// Input: CCN(CC)CCCC(C)Nc1ccnc2ccc(Oc3ccccc3)cc12 (stereo not given) . Output its growth only.
92.8

* * *

Here the recorded growth is given for each entry.
system: UACC-62 melanoma; assay: NCI-60 one-dose screen, 48 h (100 = growth as untreated, 0 = no growth, -100 = all killed); conditions: 10 µM unless noted
Compounds without any hit were thinned out: in the full panel of roughly 83,000, 20% have a hit.
I only need the number, in %, no unit after it.

Please review the entries below; each comes with its answer.
NC(N)=NC1CCCCC1 ... 99.6
CN1CCC2(CC1)N=C(SCC(=O)Nc1cnc3ccccc3c1)C(c1ccc(Br)cc1)=N2 ... -78.9
CCCCCCCCCCCCCCCCCC1=NCCN1CCO ... 92
CCN(CC)C(=O)O/N=C(/C)c1ccccc1 ... 99.1
COC(=O)[C@@H](Cc1c[nH]c2ccccc12)NC(=O)/C=C/c1ccccc1 ... 44.1
CC(=O)c1ccc(Br)c([N+](=O)[O-])c1 ... 111
CCCCCCCCCCCCCCCC1=NC(C)(C)CN1C(C)C ... -75.5
CC1(C)OC2OC3C(CN)OC(c4ccccc4)OC3C2O1 (centres undefined) ... 105

Return growth for the following compound: Cc1nn(-c2cccc(Cl)c2)c(C)c1N=Nc1ccc(Br)cc1
81.7

Given the compound C=C(C)[C@@H]1CC[C@]2(C(=O)NC(COC(=O)C(Cl)Cl)(COC(=O)C(Cl)Cl)COC(=O)C(Cl)Cl)CC[C@]3(C)[C@H](CC[C@@H]4[C@@]5(C)CC[C@H](OC(C)=O)C(C)(C)[C@@H]5CC[C@]43C)[C@@H]12 , write its reported growth.
81

Give the reported value of growth for this record: O=c1oc2ccccc2cc1-c1cc(-c2ccc(-c3cc(-c4cc5ccccc5oc4=O)nc(-c4cc5ccccc5oc4=O)c3)cc2)cc(-c2cc3ccccc3oc2=O)n1
99.1

For the compound COc1ccc(-c2nc(SCCC(C)C)nc(Nc3ccc(C(=O)O)cc3)c2C#N)cc1 , give its measured growth value.
86.8

Give reported growth value for O=C(CC(=O)C(F)(F)C(F)(F)C(F)(F)F)c1cc2ccccc2o1
104

For O=[N+]([O-])c1ccc(N/N=C\c2ccc(O)cc2O)nc1 , write its growth.
43.9

* * *

system: SK-OV-3 ovarian; assay: NCI-60 one-dose screen, 48 h (100 = growth as untreated, 0 = no growth, -100 = all killed); details: 10 µM unless noted
The panel holds about 83,000 compounds, 20% with a hit somewhere; the sample as a whole holds those more often.
Readings of growth for the listed compounds
Field format: number, assumed %, no unit text.

Reference set, count: 2
O=C1OCC2=C1C(c1ccccc1)c1cc3c(cc1N2CCO)CCC3 (stereo not drawn) ... -20.7
O=C1N(Cc2ccccc2Cl)c2ccccc2C12NN=C(c1ccccc1)S2 (stereo not drawn) ... 83.2

Let's switch to this compound now.
Send back SK-OV-3 ovarian growth of COc1cc(/C=C/c2cc(/C=C/c3ccc(O)c(OC)c3)n(C(=O)Nc3ccc(F)c(Cl)c3)n2)ccc1O only.
-31.2

* * *

tested on: LOX IMVI melanoma; experiment: NCI-60 one-dose screen, 48 h; details: 10 µM unless noted
This is part of a sample that, as a whole, favours compounds with a hit. Of some 83,000 tested, about 20% had one in any assay. Active and inactive are the calls of the source. The calls were made as follows: active = growth percent below 10; inactive = the rest.
Assign a class; possible classes are active, inactive

For this compound, state the assay outcome: O=C1/C=C/[C@@H](O)[C@@H]2C[C@@H](O)C[C@H]2/C=C/CCC[C@H]([C@@H](O)CO)O1
inactive

Hi team, can someone confirm the assay call for COc1ccc2c(c1)N(Cc1ccc(Cl)cc1)CCC2N1CCCC1=O (stereo not given) ?
inactive

Any idea what this test logged for S=C(S)Oc1cccc2cccnc12 ?
inactive

Any idea what this test logged for CCCCc1nc(Cl)c(C2CC(c3ccc(S(N)(=O)=O)cc3)=NN2c2ccc(C#N)cc2)[nH]1 (stereo not given) ?
inactive

Give the logged outcome of this assay for the following compound: Cc1c(C(=O)CCl)c(=O)n(-c2ccccc2)n1C
inactive

* * *

tested on: A549/ATCC NSCLC; test: NCI-60 one-dose screen, 48 h (100 = growth as untreated, 0 = no growth, -100 = all killed); conditions: 10 µM unless noted
Compounds without any hit were thinned out: in the full panel of roughly 83,000, 20% have a hit. The source made the active and inactive calls. How the source made its calls: active means growth percent below 10; inactive means the rest.
Property Name: growth

Report growth for CC(NC(=O)c1ccccc1)C(=O)Nc1ccccc1 (centres undefined)
96.3% (inactive)

Indicate its recorded growth; the molecule in question is COc1cc(NC(=O)CSc2nc3ccc(Cl)cc3c(=O)n2-c2ccccc2)cc(OC)c1OC
89% (inactive)

Assign growth to the following record: O=S(=O)(Nc1ccc2ccccc2c1)N1CCCCC1
68.9% (inactive)

Return the recorded growth value; entry: NNC(=O)CSc1nc2scc(-c3ccccc3)c2c(=O)n1-c1ccccc1
115% (inactive)

Give reported growth value for Cn1c(-c2ccccc2)cc(=O)n1-c1ccccc1
102% (inactive)

Supply growth value. Item: COc1cccc(/C(C)=N/NC(=O)CSc2nc3ccccc3c(=O)n2CCc2ccc(S(N)(=O)=O)cc2)c1
15.6% (inactive)

Specify reported growth for the molecule shown: CCOC(=O)Cc1cc(Br)c(OCc2ccccc2)c(Br)c1
104% (inactive)

Please indicate growth recorded for CC(C)(C)c1ccc(C(=O)Nc2sc3cc(O)ccc3c2C(N)=O)cc1
82.5% (inactive)

For the molecule O=C(Nc1ccccc1)c1cc2ccccc2s1 , report growth.
69.4% (inactive)

* * *

test system: OVCAR-3 ovarian; assay: NCI-60 one-dose screen, 48 h (100 = growth as untreated, 0 = no growth, -100 = all killed); settings: 10 µM unless noted
This is part of a sample that, as a whole, favours compounds with a hit. Of some 83,000 tested, about 20% had one in any assay.
Property Name: growth (%)
The reply should contain only the number, in %.

Please review the following examples before continuing.
CN1C(=O)C(C(=O)/C=C/c2ccccc2C(=O)O)C(=O)N(C)C1=O ... 110
COc1ccc(C(=O)OC2C(OC3C(O)COC(O[C@H]4C[C@H]5[C@@H]6CC=C7C[C@@H](O)CC[C@]7(C)[C@H]6CC[C@]5(C)[C@H]4[C@H](C)C(=O)CCC(C)C)C3OC(=O)C(C)C)OCC(O)C2O)cc1 (some centres not stated) ... 60.5
CCCCCCCCCCCC1=NC(C)(C)CN1CCO ... 81
COc1cc(NC(=O)CSc2nc3ccc(Cl)cc3c(=O)n2-c2ccccc2)cc(OC)c1OC ... 97
CC(C)CCSc1nc(Nc2ccccc2)c(C#N)c(-c2ccc(F)cc2)n1 ... 28.8

Return reported growth for target or system OVCAR-3 ovarian, item Cc1cccc2nc3ccccc3c(Nc3ccc(NS(C)(=O)=O)cc3)c12 .
74.3

Return reported growth for target or system OVCAR-3 ovarian, item COc1ccc2c(c1)OC1=C(C(=O)OC1)C2c1cc(OC)c2c(c1)OCCO2 (configuration not stated) .
-30.4

Give growth; test system OVCAR-3 ovarian; molecule CCOC(=O)CCN(CCC(=O)OCC)c1ccccc1
85.2

Fetch value of growth on OVCAR-3 ovarian for C[C@@H]1N=C(c2ccc3ccccc3c2)Nc2nc3ccccn3c2C1=O .
16.9

# lookup: OVCAR-3 ovarian growth, key = O=C(/C=C/c1ccc(F)cc1)N1CCN(C(=O)/C=C/c2ccc(C(F)(F)F)cc2)CC1
113

Provide growth, recorded with OVCAR-3 ovarian, of O=C1OCC2=C1C(c1ccccc1)c1cc3c(cc1N2CCO)CCC3 (configuration not stated)
-21.6

GET growth | system: OVCAR-3 ovarian | item: C=C1C[C@@]2(C)C(CC[C@]3(C)C2CC=C2C4CC(C)(C)C[C@@H](OC(=O)/C(C)=C\C)[C@]4(C(=O)O)CC[C@]23C)C(C)(C)C1=O (some centres not stated)
-16.8

Report value: growth, system: OVCAR-3 ovarian, molecule: Cc1ccc(NC(=O)c2sc3nc4c(cc3c2N)C(=O)CCC4)cc1Cl
113

Using OVCAR-3 ovarian as the test system, report measured growth of Clc1ccc(-c2cnc3c(-c4ccnc(N5CCNCC5)c4)cnn3c2)cc1 .
-14.6

Recall the reported growth of CCCCc1nc(Cl)c(C2CC(c3ccc(S(N)(=O)=O)cc3)=NN2c2ccc(C#N)cc2)[nH]1 (configuration not stated) on OVCAR-3 ovarian and write it down.
92.5

Please respond with reported growth (system OVCAR-3 ovarian) for N=C(N)c1ccc(NCCNc2ccc(C(=N)N)cc2)cc1 .
110

Would you please give the reported growth of OC(CCCCCCCCC(O)CN1CCc2ccccc2C1)CN1CCc2ccccc2C1 (configuration not stated) with OVCAR-3 ovarian?
107

Report growth from OVCAR-3 ovarian testing of CCN1C(=O)N(CC)C2C1N=C(SC)N2/N=C/C=C/c1ccccc1OC (configuration not stated)
-18.9
